# STUDY_SYSTEM: human eEFSec (Homo sapiens, UniProt P57772, T48A)
# Construct: intact full-length, N-terminal 6xHis tag (pET15b, no tag removal described), E. coli Lemo21(DE3); monomer in solution; SeMet form also made for phasing
# PROTOCOL_TEXT: isothermal titration calorimetry
MEASURE_NAME: Kd
Answers without a unit are incomplete; give the number and then its unit.

- Nc1nc2c(ncn2[C@@H]2O[C@H](COP(=O)(O)OP(=O)(O)OP(=O)(O)O)[C@@H](O)[C@H]2O)c(=O)[nH]1: 1820 nM

// switching to the query compound
### Prompt Fill in the blank: the reported Kd of Nc1nc2c(ncn2[C@@H]2O[C@H](COP(=O)(O)OP(=O)(O)O)[C@@H](O)[C@H]2O)c(=O)[nH]1 is ____.
### Response 240 nM

====

# STUDY_SYSTEM: human eEFSec (Homo sapiens, UniProt P57772, D92A)
# Construct: intact full-length, N-terminal 6xHis tag (pET15b, no tag removal described), E. coli Lemo21(DE3); monomer in solution; SeMet form also made for phasing
# Sequence (P57772 whole entry D92A): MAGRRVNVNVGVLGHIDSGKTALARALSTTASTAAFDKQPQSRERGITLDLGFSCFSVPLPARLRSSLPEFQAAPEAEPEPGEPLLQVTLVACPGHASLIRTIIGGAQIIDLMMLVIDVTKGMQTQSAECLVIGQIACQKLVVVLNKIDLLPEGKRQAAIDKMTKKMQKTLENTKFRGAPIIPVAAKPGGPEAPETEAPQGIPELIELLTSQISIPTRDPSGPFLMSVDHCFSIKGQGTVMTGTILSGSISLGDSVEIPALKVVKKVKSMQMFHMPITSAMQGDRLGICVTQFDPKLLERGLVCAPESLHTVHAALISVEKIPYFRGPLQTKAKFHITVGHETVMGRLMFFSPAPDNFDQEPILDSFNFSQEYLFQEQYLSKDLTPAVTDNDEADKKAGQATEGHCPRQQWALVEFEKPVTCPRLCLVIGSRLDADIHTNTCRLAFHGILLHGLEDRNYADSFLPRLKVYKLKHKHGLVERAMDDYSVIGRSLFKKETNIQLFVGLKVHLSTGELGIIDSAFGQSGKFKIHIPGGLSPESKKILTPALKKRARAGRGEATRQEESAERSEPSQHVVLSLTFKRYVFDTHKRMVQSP
# PROTOCOL_TEXT: isothermal titration calorimetry
Listed compounds paired with reported Kd
Give the value in µM but do not write µM after it.

• Nc1nc2c(ncn2[C@@H]2O[C@H](COP(=O)(O)OP(=O)(O)OP(=O)(O)O)[C@@H](O)[C@H]2O)c(=O)[nH]1 = 8.47

// switching to the query compound
### Prompt Request: Kd, test system human eEFSec (Homo sapiens, UniProt P57772, D92A), entry Nc1nc2c(ncn2[C@@H]2O[C@H](COP(=O)(O)OP(=O)(O)O)[C@@H](O)[C@H]2O)c(=O)[nH]1
### Response 1.5
